test system: Escherichia coli TOP10; assay: shrunken log2 fold change of peptide-encoding DNA abundance (4.5 h post-induction vs induction); higher = less antimicrobial activity (less host growth inhibition); details: time post-induction: 4.5 h; library: site-saturation at positions 5, 18, 19, 20
Classify as follows. Reported shrunken log2 fold change greater than or equal to 0.04: met. Reported shrunken log2 fold change below: not met.

See these solved cases before continuing.
RRIRQRPPRLPRPRPRPMIVPRP ... not met
RRIRMRPPRLPRPRPRPARNPRP ... not met
RRIRNRPPRLPRPRPRPWWHPRP ... not met

Assess whether reported shrunken log2 fold change for `RRIRPRPPRLPRPRPRPHFCPRP` sits at 0.04 or higher.
not met

====

test system: Escherichia coli TOP10; assay: shrunken log2 fold change of peptide-encoding DNA abundance (4.5 h post-induction vs induction); higher = less antimicrobial activity (less host growth inhibition); settings: time post-induction: 4.5 h; library: site-saturation at positions 5, 18, 19, 20
Quick reference for shrunken log2 fold change among some sequences
Note: the reply should be a number with no unit written.

Previously resolved entries follow.
RRIRSRPPRLPRPRPRPCDDPRP ... 0.161
RRIRDRPPRLPRPRPRPLKSPRP ... 0.00491
RRIRGRPPRLPRPRPRPWAAPRP ... 0.539
RRIRYRPPRLPRPRPRPSNSPRP ... -1.15

# shrunken log2 fold change lookup, item `RRIRYRPPRLPRPRPRPKLPPRP`
0.108

Reported shrunken log2 fold change, sequence `RRIRPRPPRLPRPRPRPSSEPRP` : ____
0.174

What value of shrunken log2 fold change has been reported for the following sequence? `RRIRTRPPRLPRPRPRPYMHPRP`
-0.685

Dear colleague, I am looking for the recorded shrunken log2 fold change of the following sequence: `RRIRQRPPRLPRPRPRPGFRPRP`
0.0901

For the sequence `RRIRLRPPRLPRPRPRPMRVPRP` , what shrunken log2 fold change is on record?
0.115

Tell me the measured shrunken log2 fold change of `RRIRERPPRLPRPRPRPVWMPRP` , please.
-0.0846

====

tested on: Escherichia coli TOP10; assay: shrunken log2 fold change of peptide-encoding DNA abundance (4.5 h post-induction vs induction); higher = less antimicrobial activity (less host growth inhibition); details: time post-induction: 4.5 h; library: site-saturation at positions 5, 18, 19, 20;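 note: peptides expressed intracellularly from a pBAD plasmid library in pooled LB shake-flask culture, induced with 0.3% L-arabinose, DNA abundance read by NGS, three biological replicates, DESeq2 with apeglm shrinkage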
result.type: shrunken log2 fold change
Just the number, please, no unit after it.

RRIRHRPPRLPRPRPRPLQKPRP ... 0.104
RRIRQRPPRLPRPRPRPWRDPRP ... 0.19
RRIRDRPPRLPRPRPRPMVTPRP ... 0.769
RRIRFRPPRLPRPRPRPHRVPRP ... -0.137
RRIRWRPPRLPRPRPRPPFIPRP ... -0.117

Entry under review: `RRIRMRPPRLPRPRPRPIMVPRP` . Reported shrunken log2 fold change?
-0.0355

Consider the sequence shown here: `RRIRVRPPRLPRPRPRPKWVPRP` What is its recorded shrunken log2 fold change?
0.0874

Recorded shrunken log2 fold change for `RRIRVRPPRLPRPRPRPMSYPRP` , please?
-0.0627

Would you kindly share the measured shrunken log2 fold change for `RRIRLRPPRLPRPRPRPACSPRP` ?
0.0854

Query (sequence): `RRIRTRPPRLPRPRPRPSRMPRP` ; field requested: shrunken log2 fold change
-0.0328

Look up shrunken log2 fold change for this sequence: `RRIRKRPPRLPRPRPRPCRTPRP`
0.0438

Please give the measured shrunken log2 fold change for this sequence: `RRIRGRPPRLPRPRPRPHQDPRP`
0.165

Which shrunken log2 fold change is reported for this sequence? `RRIRWRPPRLPRPRPRPYFMPRP`
-0.834

Please report the recorded shrunken log2 fold change for `RRIRGRPPRLPRPRPRPQISPRP` .
0.259

Look at this sequence and give its reported shrunken log2 fold change. `RRIRCRPPRLPRPRPRPEIRPRP`
-0.123

Please report the recorded shrunken log2 fold change for `RRIRIRPPRLPRPRPRPSSPPRP` .
-0.746

Which shrunken log2 fold change is listed for `RRIRIRPPRLPRPRPRPFEKPRP` ?
-0.103

So what's the measured shrunken log2 fold change for this one? `RRIRVRPPRLPRPRPRPLEHPRP`
-0.22

Entry `RRIRTRPPRLPRPRPRPWPAPRP` : reported shrunken log2 fold change = ?
0.61
